Values were extracted from paper PMC7489219.

system: primary mouse cortical neurons; construct: primary cortical neurons, DIV 10; assay: cells; parameters: Protection from NMDA-induced (30 uM, 10 min) neuronal death; Hoechst nuclear morphology by automated microscopy; settings: Cortical neurone, 20 h, read-out: % inhibition, inhibition of NMDA-induced cell death (protection score), 30 min pre-treatment
Where a name gives a salt, the structure may show the parent alone.
Here, each record is paired with measured inhibition at 10 µM data.
Only the number, expressed in %, is required.

Worked cases, inhibition at 10 µM given:
INSERT INTO assay_data (compound, experimental_result) VALUES
  ('C[C@H]1[C@H](C)CC[C@]2(C(=O)O)CC[C@]3(C)C(=CC[C@@H]4[C@@]5(C)C[C@@H](O)[C@H](O)[C@@](C)(CO)[C@@H]5CC[C@]43C)[C@H]12', -2.44),
  ('CN/C(=N\CCSCc1nc[nH]c1C)NC#N', -0.847),
  ('O=C1c2c(O)cc(O)cc2O[C@H](c2ccc(O)c(O)c2)[C@H]1O [Taxifolin (Dihydroquercetin)]', 12.2),
  ('O=C(/C=C/c1ccc(O)cc1)c1ccc(O)cc1O', 5.56);

Ask: Any idea what inhibition at 10 µM came out for O=C1[C@H](CC[C@H](O)c2ccc(F)cc2)[C@@H](c2ccc(O)cc2)N1c1ccc(F)cc1 [Ezetimibe (Zetia)] on primary mouse cortical neurons?
Result: 21.4

Ask: Here is the next compound: Clc1cccc(Cl)c1NC1=NCCN1 [Clonidine hydrochloride (Catapres)]
Result: -1.98

Ask: Here is the next compound: CC(C)(C)NCC(O)c1ccc(O)c(CO)c1 (stereo not drawn) [Salbutamol sulfate (Albuterol)]
Result: -7.52

Ask: Here is the next compound: COCCOC(=O)C1=C(C)NC(C)=C(C(=O)OC(C)C)C1c1cccc([N+](=O)[O-])c1 (stereo not drawn)
Result: -0.576

Ask: Here is the next compound: Cn1c(CNc2ccc(C(=N)N)cc2)nc2cc(C(=O)N(CCC(=O)O)c3ccccn3)ccc21 [BIBR 953 (Dabigatran etexilate, Pradaxa)]
Result: -1.4
